# System: Human alphaherpesvirus 1
# measurement-protocol: Inhibition of herpes simplex virus type 1 (HSV-1) F strain
# Format: functional, organism-based
readout-type: EC50 (µg/mL)
Give bare numbers, in µg/mL.

// worked examples, EC50 included
• CCOP(=O)(O)COCCn1cnc2c(N)ncnc21 = 150
• Nc1nc(O)c2c(ncn2CCOCP(=O)(O)O)n1 = 200
• CC(C)OP(=O)(COCCn1cnc2c(N)nc(N)nc21)OC(C)C = 240
• CC(C)OP(=O)(O)COCCn1cnc2c(O)nc(N)nc21 = 0.64
• Nc1nc(N)c2ncn(CCOCP(=O)(O)O)c2n1 [PMEDAP] = 2
• Nc1ncnc2c1ccn2CCOCP(=O)(O)O = 150
• Nc1nc(Cl)c2ncn(CCOCP(=O)(O)O)c2n1 = 0.13
• NC1=NC2N=CC=NC2C(=O)N1CCOCP(=O)(O)O (configuration not stated) = 150
• Nc1nc(O)c2nc(Br)n(CCOCP(=O)(O)O)c2n1 = 240
• CC(C)OP(=O)(COCCn1c(Br)nc2c(O)nc(N)nc21)OC(C)C = 240

List reported EC50 for each of these molecules:
1. Nc1nc(=O)n(CCOCP(=O)(O)O)cc1Br
2. Nc1cc2c(ncn2CCOCP(=O)(O)O)c(N)n1
3. CCOP(=O)(O)COCCn1cnc2c(O)nc(N)nc21

1. 40
2. 70
3. 2

List reported EC50 for each of these molecules:
1. CC(C)OP(=O)(COCCn1cnc2c(O)nc(N)nc21)OC(C)C
2. CCOP(=O)(O)COCCn1cnc2c(N)nc(N)nc21

[240, 200]
